# measuredOn: neuraminidase of seasonal influenza A(H1N1) H275 wildtype virus isolates (Influenza A virus, UniProt A8C8J7)
# Format: biochemical
# measurementParameters: read-out: IC50 X0.75 (75th Percentile)
pIC50: −log10 of the molar value.
resultType: pIC50

INSERT INTO results (smilesrepr, reportedresult) VALUES
  ('CCC(CC)[C@H](NC(C)=O)[C@@H]1[C@H](O)[C@@H](C(=O)O)C[C@H]1N=C(N)N', 9.89);

----------
# measuredOn: neuraminidase of seasonal influenza B virus isolates (Influenza B virus)
# Format: biochemical
# measurementParameters: read-out: IC50 Range
pIC50: −log10 of the molar value.
resultType: pIC50

INSERT INTO results (smilesrepr, resulttype, reportedresult) VALUES
  ('CCC(CC)[C@H](NC(C)=O)[C@@H]1[C@H](O)[C@@H](C(=O)O)C[C@H]1N=C(N)N', 'pIC50', '8.96 to 9.62');
